biological target: HUI77, murine IgM anti-denatured-collagen monoclonal antibody; assay: competition ELISA on coated dn-collagen IV
Square brackets hold non-standard residues; d marks the D form. Ends that are not written are not given here. Hyp = O=C(O)[C@@H]1C[C@@H](O)CN1
Measured metric: % inhibition of HUI77 binding to dn-collagen IV, peptide 1000 µM (%)

>  <Binder>
[Hyp]GAKGLPGP[Hyp]GP[Hyp]GPY [synthetic peptide No. 12, … (SEQ ID NO: 2)]

>  <Observed result>
86.5

$$$$
>  <Binder>
LPGFPGC (also: hydroxyproline marking, if any, lost) [synthetic peptide No. 9, LPGFPGC (SEQ ID NO: 37)]

>  <Observed result>
8.5

$$$$
>  <Binder>
GP[Hyp]GP[Hyp]GPY [synthetic peptide No. 3, … (SEQ ID NO: 30)]

>  <Observed result>
78

$$$$

[a] PGP[Hyp]GP[Hyp]GP [synthetic peptide No. 1, … (SEQ ID NO: 29)]
[b] L[Hyp]GT[Hyp]G [synthetic peptide No. 8, LPGTPG (SEQ ID NO: 27)]
Quick check, higher % inhibition of HUI77 binding to dn-collagen IV, peptide 1000 µM between a and b ? Identify your selection by its label.
a
(a: 63%, b: 6%)

[I] L[Hyp]GP[Hyp]G [synthetic peptide No. 16, LPGPPG (SEQ ID NO: 24)]
[II] GPXGPXGP (hydroxyproline at the P positions marked in Tables 13 and 14; marking lost in this text) [synthetic peptide No. 17, GPPGPPGP (SEQ ID NO: 31)]
Which of these two has the smaller recorded % inhibition of HUI77 binding to dn-collagen IV, peptide 1000 µM: I or II ? // output: label of the selected item
II
(II: 44%, I: 64%)
